- targetUnderTest: human S1P1 receptor (Homo sapiens)
- Sequence (P21453 whole entry): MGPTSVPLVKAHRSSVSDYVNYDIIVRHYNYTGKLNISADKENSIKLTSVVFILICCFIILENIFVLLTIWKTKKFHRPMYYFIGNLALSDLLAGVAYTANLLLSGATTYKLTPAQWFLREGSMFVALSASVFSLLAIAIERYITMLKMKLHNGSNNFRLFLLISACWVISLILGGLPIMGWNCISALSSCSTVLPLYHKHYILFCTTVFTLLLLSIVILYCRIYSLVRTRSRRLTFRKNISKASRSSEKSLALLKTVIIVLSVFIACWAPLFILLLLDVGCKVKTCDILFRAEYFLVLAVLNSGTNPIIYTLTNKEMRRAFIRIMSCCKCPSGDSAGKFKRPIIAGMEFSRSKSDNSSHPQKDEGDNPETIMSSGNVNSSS
- assayName: GTPγS assay to determine EC50 values
- Type: biochemical
- measurementContext: 35S-GTPγS binding, membrane preparations of CHO cells expressing recombinant human S1P1 receptor; agonistic activity
pEC50: −log10 of the molar value.
Label scheme for pEC50: lower than 7 is rule not met, 7 and above is rule met.

# bool: pEC50 of `CCCN(CC)c1nc(C)cc(-c2noc(-c3cnc(CC(C)C)c(C)c3)n2)n1` >= 7 rule not met

Here is the next compound: `CCCNc1nc(C)cc(-c2nc(-c3ccnc(C)c3)no2)n1` rule met

Here is the next compound: `CCc1cnc(-c2noc(-c3cc(C)nc(NC(C)C)n3)n2)cc1C` rule met

Here is the next compound: `CCc1cc(-c2nc(-c3cc(C)nc(C)c3)no2)nc(NC(C)C)n1` rule met

Here is the next compound: `Cc1cc(-c2noc(-c3cc(C)nc(NC(C)C)n3)n2)cc(C)n1` rule met

---

- targetUnderTest: human S1P1 receptor (Homo sapiens)
- assayName: GTPγS assay to determine EC50 values
- Assay type: biochemical
- measurementContext: 35S-GTPγS binding, membrane preparations of CHO cells expressing recombinant human S1P1 receptor; agonistic activity
- Method: GTPγS Assay to Determine EC50 Values GTPγS binding assays are performed in 96 well microtiter plates (Nunc, 442587) in a final volume of 200 μl, using membrane preparations of CHO cells expressing recombinant human S1P1 receptor. […] Membrane-bound ^35S-GTPγS is measured with a TopCount from Packard Biosciences. […]
quantityName: pEC50
For clarity, pEC50 is expressed as the negative log10 of concentration in mol/L.

GET /values?readout=pEC50&system=human S1P1 receptor (Homo sapiens)&item= Cc1cc(-c2nc(-c3cc(C)nc(OCC(C)C)n3)no2)cc(N(C)C)n1 [Example 205] 5.52

Here is the next compound: CCN(c1nc(C)cc(-c2noc(-c3ccnc(C)c3)n2)n1)C(C)C [Example 166] 5.67

Here is the next compound: CCc1cc(-c2nc(-c3cc(C)nc(NC)n3)no2)cnc1N(C)C(C)C [Example 220] 6.64

Here is the next compound: CCc1cc(-c2nc(-c3cc(C)nc(NC(C)C)n3)no2)cnc1N(C)C(C)C [Example 223] 5.38

Here is the next compound: CCc1cc(-c2noc(-c3cc(C)nc(N4CCCC4)n3)n2)cc(C)n1 [Example 118] 6.73

Here is the next compound: CNc1nc(C)cc(-c2noc(-c3cc(C)cc(CC(C)C)n3)n2)n1 [Example 238] 6.40

Here is the next compound: CNc1nc(C)cc(-c2noc(-c3cc(C)nc(CC(C)C)c3)n2)n1 [Example 81] 7.52

Here is the next compound: CCc1cc(-c2nc(-c3cc(C)nc(C)c3)no2)nc(N(C)C)n1 [Example 149] 7.20

Here is the next compound: CCN(c1nc(C)cc(-c2noc(-c3cc(C)nc(N(C)C)c3)n2)n1)C(C)C [Example 200] 7.03
